# credit: patent US20240228562A1

# Assay info: Thermal stability assessment by nanoDSC
# Format: physicochemical
# Experimental parameters: 1 mg/mL in PBS, scan 25-100° C. at 1° C./min
Measured ONSET MELTING, listed per entry for reference.
Expressed in °C, but write only the number.

Molecule | Reported endpoint | Endpoint result
SEQ ID NO: 26: optimized CTGF-binding hNGAL lipocalin mutein (protein, lipocalin mutein) QDSTSDLIPAPPLSKVPLQQNFQDNQFQGKWYVVGLAGNYRLREDKDPSKMGATIYELKEDKSYDVTQVQFDDKKCLYVIETFVPGSQPGEFTLGNIKVYPTLESQLVRVVSTNYNQHAMVFFKKVYQNREVFWITLYGRTKELTSELKENFIRFSKSLGLPENHIVFPVPIDQCIDG | ONSET MELTING | 62

Asked: Bench note: what ONSET MELTING did SEQ ID NO: 28: optimized CTGF-binding hNGAL lipocalin mutein (protein, lipocalin mutein) QDSTSDLIPAPPLSKVPLQQNFQDNQFQGKWYVVGLAGNYRLREDKDPSKMGATIYELKEDKSYDVTQVQFDDKKCLYVIETFVPGSQPGEFTLGAIKSYPGLTSQLVRVVSTNYNQHAMVFVKKVWPNLEYFQIVLYGRTKELTSELKENFIRFSKSLGLPENHIVFPVPIDQCIDG show?
Given back: 55
